Data origin, for the record: PubChem BioAssay AID651814

Biological target: DNA dC->dU-editing enzyme APOBEC-3F (Homo sapiens) (UniProt Q8IUX4)
Sequence (Q8IUX4 whole entry, looked up): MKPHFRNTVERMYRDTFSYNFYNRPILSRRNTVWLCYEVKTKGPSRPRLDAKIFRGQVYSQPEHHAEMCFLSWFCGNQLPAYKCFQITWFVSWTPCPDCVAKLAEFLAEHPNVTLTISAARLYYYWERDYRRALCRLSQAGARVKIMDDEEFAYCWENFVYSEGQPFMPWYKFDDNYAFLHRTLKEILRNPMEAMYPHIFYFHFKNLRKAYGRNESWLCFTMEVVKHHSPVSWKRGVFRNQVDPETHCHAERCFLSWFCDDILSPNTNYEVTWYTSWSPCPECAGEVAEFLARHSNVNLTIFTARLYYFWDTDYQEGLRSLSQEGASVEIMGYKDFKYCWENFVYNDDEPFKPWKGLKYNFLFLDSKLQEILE
Test: qHTS for inhibitors of Vif-A3F interactions: Cherry picks; note: potency is the fitted concentration of half-maximal effect; nearly all actives have a fitted effect of over 70% in size
Settings: HeLa A3F-eYFP + Vif (tagged APOBEC3F with the HIV-1 protein that degrades it), eYFP fluorescence, 24 h
The campaign covered roughly 2,100 compounds. About 590 (28%) were called active. Another 42% or so got no clear call; they are omitted. The list shows a part of the results.
Kindly state Potency for each of the entries shown.

Suppose we examine the compound `COc1cc(/C=C2/SC(=S)N(CCC(=O)Nc3ccccc3)C2=O)cc(OC)c1OC` ; what Potency value has been reported?
18.4 µM (active)

How about `C=CCSc1nnc(C)c(/C=C/Nc2ccc(Cl)cc2)n1` ?
20.6 µM (active)

How about `COc1cc(/C=C2/SC(=S)N(Cc3ccccc3)C2=O)cc(Cl)c1O` ?
4.44 µM (active)

How about `O=C(N/N=C\C=C\c1ccc([N+](=O)[O-])o1)c1cccs1` ?
12.5 µM (active)

How about `N#C/C(=C/c1ccc(N2CCCCCC2)o1)c1ccc(Cl)cc1` ?
3.66 µM (active)

How about `COc1ccc(NC(=O)CSc2ccc3c4c(cccc24)C(=O)c2ccccc2-3)cc1` ?
8.2 µM (active)

Items follow; give Potency for each.
1. CN(C)c1ccc(/C=C(\C#N)c2nc3ccccc3c(=O)[nH]2)cc1
2. O=C1/C(=C/c2c[nH]c3ccccc23)CCC/C1=C\c1c[nH]c2ccccc12

1. 0.731 µM (active)
2. 16.4 µM (active)

Items follow; give Potency for each.
1. CCSC1=N/C(=C\C=C2/Oc3ccccc3N2CC)C(=O)S1
2. COc1ccc(NC(=O)c2sc3nc(-c4ccc(OC)cc4)cc(C(F)(F)F)c3c2N)cc1
3. Cc1cc(NC(=O)/C(C#N)=C\c2ccc(-c3ccc(SC(F)F)cc3)o2)n(-c2ccccc2)n1
4. N#C/C(N=Nc1ccccc1O)=N\Nc1ccccc1O

["20.6 µM (active)", "1.3 µM (active)", "9.2 µM (active)", "14.6 µM (active)"]
